B1: VTI1B (parent)
chain: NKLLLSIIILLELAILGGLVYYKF

Variants of: B1
Assay: protein stability index of a GFP-peptide fusion (GPS, HEK-293T) (PSI 1-6); higher = more stable;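 also: lentivirally expressed fusions sorted by FACS into six bins by GFP to DsRed ratio, PSI derived from sequencing read proportions per bin multiplied by bin number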
Conditions: c terminus: a fixed tail appended
assay-metric: protein stability index

[[record]]
variant_name = "A14K"
assay_metric = "protein stability index"
quantitative_result = 2.48

[[record]]
variant_name = "L16H"
assay_metric = "protein stability index"
quantitative_result = 4.31

[[record]]
variant_name = "L19H"
assay_metric = "protein stability index"
quantitative_result = 1.56

[[record]]
variant_name = "V20F"
assay_metric = "protein stability index"
quantitative_result = 2.98

[[record]]
variant_name = "V20M"
assay_metric = "protein stability index"
quantitative_result = 3.01

[[record]]
variant_name = "E12L"
assay_metric = "protein stability index"
quantitative_result = 2.33

[[record]]
variant_name = "I15M"
assay_metric = "protein stability index"
quantitative_result = 3.49

[[record]]
variant_name = "S6A"
assay_metric = "protein stability index"
quantitative_result = 3.54

[[record]]
variant_name = "N1Y"
assay_metric = "protein stability index"
quantitative_result = 2.36

[[record]]
variant_name = "L5N"
assay_metric = "protein stability index"
quantitative_result = 3.71

[[record]]
variant_name = "L13C"
assay_metric = "protein stability index"
quantitative_result = 1.85

[[record]]
variant_name = "I7G"
assay_metric = "protein stability index"
quantitative_result = 3.04

[[record]]
variant_name = "L5F"
assay_metric = "protein stability index"
quantitative_result = 2.55

[[record]]
variant_name = "K2I"
assay_metric = "protein stability index"
quantitative_result = 3.89

[[record]]
variant_name = "V20R"
assay_metric = "protein stability index"
quantitative_result = 3.41

[[record]]
variant_name = "L5D"
assay_metric = "protein stability index"
quantitative_result = 2.64

[[record]]
variant_name = "N1V"
assay_metric = "protein stability index"
quantitative_result = 2.54

[[record]]
variant_name = "E12W"
assay_metric = "protein stability index"
quantitative_result = 1.82

[[record]]
variant_name = "L5E"
assay_metric = "protein stability index"
quantitative_result = 4.19

[[record]]
variant_name = "L19D"
assay_metric = "protein stability index"
quantitative_result = 3.31

[[record]]
variant_name = "L16T"
assay_metric = "protein stability index"
quantitative_result = 2.9

[[record]]
variant_name = "L3I"
assay_metric = "protein stability index"
quantitative_result = 2.78


The reported numbers originate from the supplement of paper PMC10567573.
